Recorded cell number change for the following compounds
Assay: qHTS Assay for Lipid Storage Modulators in Drosophila S3 Cells;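 note: cells counted by Cell Tracker Red CMTPX staining in the red channel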
Details: BODIPY lipid droplet fluorescence, 18-24 h, cells fed with added oleic acid; measured here: cell count max response
Hit rate of the full screen: of about 320,000 compounds, about 2,100 (0.66%) were called active. Roughly 53% stayed inconclusive and do not appear here. What follows is part of a selection rich in actives, with near analogues and random picks from the rest.

Consider the reported cell number change for these compounds:
compound	result
COc1ccc2nc(NNC(=O)c3cc(=O)c4ccccc4o3)sc2c1	1.29%
CC(C)(Oc1ccc(CCNC(=O)c2ccc(-c3ccccc3)o2)cc1)C(=O)O	7.48%
C/C(=N\NC(=O)c1ccc(C)cc1)c1c(C)[nH]n(-c2ccccc2)c1=O	-9.89%

Looking up CNC(=O)/C(C#N)=C\c1ccc(CNS(=O)(=O)c2ccc(Cl)cc2)o1 , I found its cell number change recorded as -11.3%

cell number change reported for this compound CCOc1ccc2oc(C(=O)OCC(=O)NC3CCCCC3)c(C)c2c1 : -21.4%

Quick note, cell number change for COc1ccc2nc(NC(=O)c3ccco3)sc2c1 landed at 9.21%

Documented cell number change of CCOC(=O)C1CCCN(CCC(=O)Nc2ccc(Br)c(C)c2)C1 (centres undefined) : 4.56%

# cell number change of CNC(=O)/C(C#N)=C/c1c(N2CCCCCC2)nc2ccccn2c1=O = 0.926%

# compound O=[N+]([O-])c1cc([N+](=O)[O-])c(Oc2c(F)ccc(F)c2F)cc1NN1CCCCC1 ; its cell number change = -0.599%

Input Cc1nn(C(C)C(=O)NC2C(=O)N3C(C(=O)O)=C(CSc4nnnn4C)CSC23)cc1Cl (centres undefined) . Output cell number change: -1.98%

Short answer for COc1cccc2c1cc1c(=O)n(CC(=O)NC3CCCCC3)nc(C)n12 : cell number change was -12.9%

# cell number change of CCCN(CC1CC1)C(=O)COC(=O)c1oc2c(F)cccc2c1C = 1.1%

compound CCCN1C(=O)S/C(=C\c2ccc(N3CCOCC3)cc2C)C1=O , cell number change observed: -13.4%

Per the records, this compound ( CC1Oc2ccccc2C=C1/C=N/NC(=O)[C@@H](C)NC(=O)OC(C)(C)C (some centres undefined) ) has cell number change equal to 8.38%
